Reported pKd values for a set of sequences
# target: HLA-A*02:03
# assay.procedure: IEDB peptide-MHC binding, purified MHC/competitive/radioactivity; filed as Kd, often an IC50 or EC50 that approximates it; bounds were set here for any values at or beyond the usual limits of such assays
# condition.parameters: source organism: Trypanosoma cruzi
pKd: −log10 of the molar value.
measurement.name: pKd

sequence.record: SLNRNFTLV
number: 10.02
//
sequence.record: FANYKFTLV
number: 9.22
//
sequence.record: LLGLWGFATA
number: 8.72
//
sequence.record: FANYNFTLL
number: 8.47
//
sequence.record: ELLRPTTVV
number: 5.92
//
sequence.record: RVSRPTTVV
number: 6.98

----------
Below is a list of entries, each paired with its recorded pKd value.
# target: HLA-A*02:06
# assay.procedure: IEDB peptide-MHC binding, purified MHC/competitive/radioactivity; filed as Kd, often an IC50 or EC50 that approximates it; bounds were set here for any values at or beyond the usual limits of such assays
# condition.parameters: source organism: Trypanosoma cruzi
pKd: −log10 of the molar value.
measurement.name: pKd

sequence.record: LLGLWGFATA
number: 7.21

sequence.record: RVSRPTTVV
number: 5.87

sequence.record: SLNRNFTLV
number: 9.16

sequence.record: FANYKFTLV
number: 9.33

sequence.record: ELLRPTTVV
number: 5.73

sequence.record: FANYNFTLL
number: 9.91

----------
# target: HLA-A*02:12
# assay.procedure: IEDB peptide-MHC binding, purified MHC/direct/fluorescence; filed as Kd, often an IC50 or EC50 that approximates it; bounds were set here for any values at or beyond the usual limits of such assays
# condition.parameters: source organism: Ravn virus - Ravn, Kenya, 1987

sequence.record: HSGFIYFGK
Kd: ≥ 20 µM

----------
# target: HLA-B*45:06
# assay.procedure: IEDB peptide-MHC binding, purified MHC/competitive/fluorescence; filed as Kd, often an IC50 or EC50 that approximates it; bounds were set here for any values at or beyond the usual limits of such assays
# condition.parameters: source organism: Giardia lamblia ATCC 50803

sequence.record: MTYLDGHPV
Kd: ≥ 5 µM

----------
# target: HLA-A*29:02
# assay.procedure: IEDB peptide-MHC binding, purified MHC/competitive/fluorescence; filed as Kd, often an IC50 or EC50 that approximates it; bounds were set here for any values at or beyond the usual limits of such assays
# condition.parameters: source organism: Vibrio vulnificus CMCP6

sequence.record: LEMNDAPTA
target: HLA-A*29:02
Kd: ≥ 20 µM

----------
# target: HLA-A*01:01
# assay.procedure: IEDB peptide-MHC binding, purified MHC/competitive/fluorescence; filed as Kd, often an IC50 or EC50 that approximates it; bounds were set here for any values at or beyond the usual limits of such assays
# condition.parameters: source organism: Yersinia pestis CO92
pKd: −log10 of the molar value.
measurement.name: pKd

sequence.record: QQRPDLILV
result: ≤ 5.30

----------
# target: HLA-B*18:01
# assay.procedure: IEDB peptide-MHC binding, purified MHC/competitive/fluorescence; filed as Kd, often an IC50 or EC50 that approximates it; bounds were set here for any values at or beyond the usual limits of such assays
# condition.parameters: source organism: Shigella boydii CDC 3083-94
pKd: −log10 of the molar value.

sequence.record: GMMRWCMPV
pKd: ≤ 4.70
